Sourced from patent US5811533

Target: VEGF165 (recombinant human vascular endothelial growth factor, 165 aa form) (Homo sapiens, UniProt P15692-4 P15692-4:27-191)
Sequence (P15692 other isoform, or with tags, fused parts or gaps): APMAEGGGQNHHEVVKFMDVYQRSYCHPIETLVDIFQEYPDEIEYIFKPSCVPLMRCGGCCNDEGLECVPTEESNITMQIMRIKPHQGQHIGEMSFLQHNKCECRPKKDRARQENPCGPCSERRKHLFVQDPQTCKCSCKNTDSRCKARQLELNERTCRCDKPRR
Assay: inhibition; VEGF receptor binding
Conditions: tags: gift from N. Ferrara, Genentech; chain copies: 2 (dimer, stated)
MEASURED ENDPOINT: Ki

# BINDER, MEASURED ENDPOINT, RESULT
data = [
    ("CCCGTCTTCCAGACAAGAGTGCAGGG (ssDNA) [33t]", "Ki", "3 nM"),
]
